- Tested on: HCT-15 colon
- experiment.description: NCI tumour cell line growth inhibition, 48 h
Parameter TGI: see the listing below.

{"columns": ["compound", "tested.target", "readout.unit", "relation.sign", "TGI"],
 "data": [
  ["COc1ccc(-n2sc3ncccc3c2=O)cc1", "HCT-15 colon", "µM", "=", 44.2],
  ["O=C(Nc1nc2ccccc2s1)Nc1ccc([N+](=O)[O-])cc1Cl", "HCT-15 colon", "µM", "=", 13],
  ["Brc1ccc2ns[s+]c2c1", "HCT-15 colon", "µM", ">", 100],
  ["CC(=O)c1c(C)[nH]c(-c2nc3ccc(N4CCN(C)CC4)cc3[nH]2)c1-c1ccccc1", "HCT-15 colon", "µM", "=", 18.9],
  ["C=CCc1cc(OC)c2c(c1)C(OC)CC(c1ccc(OC)c(OC)c1)O2 (stereo unspecified)", "HCT-15 colon", "µM", ">", 100],
  ["CC(=O)OC1COC(n2c(=S)n(-c3ccccc3)c(=O)c3ccccc32)C(OC(C)=O)C1OC(C)=O (stereo unspecified)", "HCT-15 colon", "µM", ">", 100],
  ["Cc1c(/C=N/N(C)C)oc2c1cc(O)c1ncccc12", "HCT-15 colon", "µM", ">", 100],
  ["CN1C(=O)C2(c3ccccc31)N(c1ccc(Cl)cc1)C(=O)C2(c1ccccc1)c1ccccc1 (stereo unspecified)", "HCT-15 colon", "µM", ">", 100],
  ["O=C(CC(Cl)=C(Cl)Cl)c1cccc(Cl)c1Cl", "HCT-15 colon", "µM", ">", 100],
  ["CC[n+]1c(/C=C/C=C2\\N(C)c3ccccc3C2(C)C)sc2ccccc21", "HCT-15 colon", "µM", "=", 9.67],
  ["CN(C)/N=C1\\CC(c2ccccc2)C(C#N)(C#N)C1(C#N)C#N (stereo unspecified)", "HCT-15 colon", "µM", "=", 30.1]
]}

----------
Parameter TGI: see the listing below.
- System: 786-0 renal
- experiment.description: NCI tumour cell line growth inhibition, 48 h

{"columns": ["compound", "TGI"],
 "data": [
  ["CN1C(=O)C2(c3ccccc31)N(c1ccc(Cl)cc1)C(=O)C2(c1ccccc1)c1ccccc1 (stereo not drawn)", "> 100 µM"],
  ["COc1cc2nc(-c3cccs3)[nH]c(=O)c2cc1OC", "> 100 µM"],
  ["CC(C)(C)N(Cc1ccc2c(c1)OCO2)C(=O)/C=C\\Sc1ccccc1", "> 100 µM"],
  ["c1cc2c(cn1)Nc1ccncc1S2", "78.1 µM"],
  ["NC(=O)NC1C(C(N)=O)N(Cc2ccccc2)C(=O)N1Cc1ccccc1 (stereo not drawn)", "> 100 µM"],
  ["COC(OC)[C@@H]1OC[C@@H](O)[C@@H]1n1cnc2c(N)ncnc21", "> 100 µM"],
  ["CC1=NC(=Cc2ccc([N+](=O)[O-])cc2)C(=O)N1n1c(-c2ccccc2)nc2ccccc2c1=O", "> 100 µM"],
  ["COc1ccc(C(OCC2OC(n3ccc(NC(=O)c4ccccc4)nc3=O)CC2OP2(=S)SCCS2)(c2ccccc2)c2ccc(OC)cc2)cc1 (stereo not drawn)", "82 µM"],
  ["COc1ccc(N=N/C(C(=O)C(F)(F)F)=C(\\O)c2ccc(Cl)cc2)cc1", "83.6 µM"],
  ["COc1ccc(N(C)c2nc(N)nc3sc4c(c23)CCCC4)cc1", "13.2 µM"],
  ["O=C(Nc1nc2c(ncn2C2OC(CO)C(O)C2O)c(=O)[nH]1)c1ccccc1 (stereo not drawn)", "> 100 µM"],
  ["CC(=O)c1c(C)[nH]c(-c2nc3ccc(N4CCN(C)CC4)cc3[nH]2)c1-c1ccccc1", "20.5 µM"],
  ["Cc1cc(Cl)nc(N(CCCNc2ccnc3cc(Cl)ccc23)Cc2ccco2)n1", "4.61 µM"],
  ["CCN1CCN(C(=O)[C@]23CCC(C)(C)C[C@@H]2C2=CC[C@@H]4[C@@]5(C)C/C(=C/c6ccncc6)C(=O)C(C)(C)[C@@H]5CC[C@@]4(C)[C@]2(C)CC3)CC1", "3.15 µM"],
  ["C[C@@H]1S[C@H](c2c(Cl)cccc2Cl)N2Cc3ccccc3N=C12", "> 100 µM"],
  ["COC(=O)c1ccc(NC(=O)Oc2ccc(N(CCCl)CCCl)cc2)cc1", "25.6 µM"],
  ["O=C1c2cn[nH]c2C(c2ccccc2)N1c1ccccc1 (stereo not drawn)", "> 10 µM"],
  ["C[N+]1(CCN[N+]2(C)CCCCC2)CCc2ccccc2C1 (stereo not drawn)", "> 100 µM"],
  ["O=C(Nc1nc2ccccc2s1)Nc1ccc([N+](=O)[O-])cc1Cl", "3.7 µM"],
  ["Nc1ncnc2c1ncn2C1OC(CO)C(O)C1N (stereo not drawn)", "> 100 µM"],
  ["O=C(COc1cccc(/C=C2\\CSc3ccccc3C2=O)c1)Nc1nccs1", "13 µM"],
  ["O=C(OCC(Cl)(Cl)Cl)O[C@@H]1CCCC1(c1ccccc1)c1ccccc1", "> 100 µM"],
  ["O=C1Cc2cc(C(=O)NC3C[C@H]4CC[C@@H](C3)N4S(=O)(=O)CC3CCN(CCCC(F)(F)F)CC3)c(Cl)cc2N1 (stereo partly drawn)", "> 100 µM"],
  ["NS(=O)(=O)OCCCCCCCOS(N)(=O)=O", "571 µM"],
  ["CCOC(=O)c1cnc2c(C)cccc2c1Nc1ccc(C(C)=O)cc1", "42.3 µM"],
  ["COC(=O)[C@H]1CCCN1C(=O)[C@H]1CCCN1C(=O)[C@H](Cc1c[nH]c2ccccc12)NC(=S)Nc1cc(C(F)(F)F)cc(C(F)(F)F)c1", "83 µM"],
  ["C/C(=C\\c1csc(C)n1)[C@@H]1C[C@@H]2O[C@@H]2CCC[C@H](C)[C@H](O)[C@@H](C)C(=O)C(C)(C)[C@@H](O)CC(=O)O1", "> 100 µM"],
  ["CCCCCCCCCCCCCC[C@@H](O)[C@H]1CC[C@H]([C@H]2CC[C@H]([C@H](O)CCCCCC[C@@H](O)CC3=C[C@H](C)OC3=O)O2)O1", "> 25 µM"],
  ["Cn1c(-c2c(N)n(CCCN3CCOCC3)c3nc(C#N)c(C#N)nc23)nc2ccccc21", "> 69 µM"],
  ["CC1(C)CC(=O)C2=C(C1)OC1=C(CC(C)(C)CC1=O)C2c1ccccc1[N+](=O)[O-] (stereo not drawn)", "> 100 µM"],
  ["COc1ccc(/C=C/C(=O)c2sc(-n3nc(-c4ccccc4)cc3-c3ccccc3)nc2C)cc1", "> 100 µM"],
  ["CN1CCN(CCCOc2cccc3nc(Nc4ccc(Cl)c(C(F)(F)F)c4)ccc23)CC1", "2.89 µM"],
  ["COc1cc(-c2ccccc2N)c2cccnc2c1OC", "14.9 µM"],
  ["CN1c2ccccc2N(C(=O)c2ccccc2)C(CC(=O)O)c2cccn21 (stereo not drawn)", "> 100 µM"],
  ["CC1(C)C(=O)C(C)(C)C1=S", "> 100 µM"],
  ["Cn1cc(C2=C(c3cn(CCCCCSC(=N)N)c4ccccc34)C(=O)NC2=O)c2ccccc21", "7 µM"],
  ["COc1cc(N(Cc2ccc3oc(=O)c(-c4ccccc4)nc3c2)Cc2ccc3oc(=O)c(-c4ccccc4)nc3c2)cc(OC)c1OC", "> 10 µM"],
  ["CC(C)C1N(C)c2ccc(Cl)cc2[C@H]2c3ccccc3CCN12 (stereo partly drawn)", "> 100 µM"]
]}

----------
- Test system: SF-268 CNS
- experiment.description: NCI tumour cell line growth inhibition, 48 h; in the data active = GI50 below about 0.43 µM; inactive = the rest
Outcome codes: yes (1) (active), no (0) (inactive)

{"columns": ["compound", "tested.target", "label"],
 "data": [
  ["CCn1c(-c2nonc2N)nc2cncc(C(=O)N3CC[C@H](N)C3)c21", "SF-268 CNS", "no (0)"],
  ["CCOC(=O)c1cnc2c(C)cccc2c1Nc1ccc(C(C)=O)cc1", "SF-268 CNS", "no (0)"],
  ["COc1cc2c3c(n(C)c(=O)c2cc1OC)-c1ccc(C#N)cc1C3=O", "SF-268 CNS", "no (0)"],
  ["CN1CSC(=S)N(Cc2ccccc2)C1", "SF-268 CNS", "no (0)"],
  ["O=C(CN1C(=O)S/C(=C\\C(Cl)=C\\c2ccccc2)C1=O)NC1C=CS(=O)(=O)C1 (configuration not stated)", "SF-268 CNS", "no (0)"],
  ["COc1ccc(/C(C#N)=C2C=C/C(=N/O)c3ccccc3\\2)cc1", "SF-268 CNS", "no (0)"],
  ["COc1cc(-c2nn(-c3cccc(NC(=O)c4ccc(Cl)c(C(F)(F)F)c4)c3)cc2-c2ccncc2)ccc1Cl", "SF-268 CNS", "no (0)"],
  ["COc1ccc(N(C)c2nc(N)nc3sc4c(c23)CCCC4)cc1", "SF-268 CNS", "yes (1)"],
  ["O=C1Cc2cc(C(=O)NC3C[C@H]4CC[C@@H](C3)N4S(=O)(=O)CC3CCN(CCCC(F)(F)F)CC3)c(Cl)cc2N1 (some centres not stated)", "SF-268 CNS", "no (0)"],
  ["CN(CC(=O)N(Cc1ccc(C2CCCCC2)cc1)c1ccc(C(=O)O)cc1)S(=O)(=O)c1c(F)c(F)c(F)c(F)c1F", "SF-268 CNS", "no (0)"],
  ["CC(=O)[O][Hg][c]1c(C)c(C)cc(C)c1C", "SF-268 CNS", "no (0)"],
  ["O=C(Nc1nc2ccccc2s1)Nc1ccc([N+](=O)[O-])cc1Cl", "SF-268 CNS", "no (0)"],
  ["CCC(=O)c1c(C(F)(F)F)n([O-])c2cc(F)c(F)cc2[n+]1=O", "SF-268 CNS", "no (0)"],
  ["N#CC1c2ccccc2C=CN1C(=O)N(c1ccccc1)c1ccccc1 (configuration not stated)", "SF-268 CNS", "no (0)"],
  ["COc1ccc2c(OCc3nnc4ccc(-c5ccccc5)nn34)ccnc2c1", "SF-268 CNS", "no (0)"],
  ["CC(=O)c1c(C)[nH]c(-c2nc3ccc(N4CCN(C)CC4)cc3[nH]2)c1-c1ccccc1", "SF-268 CNS", "no (0)"],
  ["COc1ccc(/C=C/C(=O)c2sc(-n3nc(-c4ccccc4)cc3-c3ccccc3)nc2C)cc1", "SF-268 CNS", "no (0)"]
]}
